Assay: Abiotic CYP (aCYP) oxidation, remaining parent compound (Cparent-Ratio)
Conditions: Table S9, replicate 2, as fraction
measurementLabel: Cparent-Ratio Rep.2
Give bare numbers.

| molecule | Cparent-Ratio Rep.2 |
| --- | --- |
| O=C(OCc1ccccc1)c1ccc(O)cc1 [BzPB, Benzyl 4-hydroxybenzoate] | 1.28 |
| O=S(=O)(c1ccc(O)cc1)c1ccc(OCc2ccccc2)cc1 [BPS-MPE, 4-[4-(benzyloxy)benzenesulfonyl]phenol] | 0.81 |
| CC(C)Oc1ccc(S(=O)(=O)c2ccc(O)cc2)cc1 | 1.10 |
| CC1(C)C(O)C(C)(C)C1O (racemic) | 1.02 |

Consider the record given below.
**Query** Please indicate Cparent-Ratio Rep.2 recorded for CC(C)(c1ccc(O)cc1)c1ccc(O)cc1 [BPA, 4,4'-(Propane-2,2-diyl)diphenol, reference compound]
**Result** 0.85

====

Assay: Acidity constant (pKa) measurement, Sirius T3 UV-metric, and speciation at pH 7.4
Settings: phosphate buffer with […] KCl, Sirius T3 titrator, pKa (Acid); experimental, this study
Reported pKa maps to class as: I = under 6, II = from 6 up to 9, III = 9 and over

Reference set, count: 7
| compound | categoryLabel |
| --- | --- |
| Cc1ccc(S(=O)(=O)NC(=O)Nc2cccc(OS(=O)(=O)c3ccc(C)cc3)c2)cc1 | I |
| O=C(OCc1ccccc1)c1ccc(O)cc1 [BzPB, Benzyl 4-hydroxybenzoate] | III |
| CC1(C)[C@H](O)C(C)(C)[C@H]1O | III |
| COC(=O)C(c1ccc(O)cc1)c1ccc(O)cc1 [Bz, Methyl bis(4-hydroxyphenyl)acetate] | II |
| O=S(=O)(c1ccc(O)cc1)c1ccc(OCc2ccccc2)cc1 [BPS-MPE, 4-[4-(benzyloxy)benzenesulfonyl]phenol] | II |
| CC(C)(c1cc(Br)c(O)c(Br)c1)c1cc(Br)c(O)c(Br)c1 | II |
| CC(C)Oc1ccc(S(=O)(=O)c2ccc(O)cc2)cc1 | II |

Let us examine a further case.
**Query** Sort into band: `Cc1ccc(S(=O)(=O)NC(=O)Nc2ccc(Cc3ccc(NC(=O)NS(=O)(=O)c4ccc(C)cc4)cc3)cc2)cc1`
**Result** I

====

Test system: Tox21 assays
Assay: Re-evaluated Tox21 data (Adamovsky et al.), REPBPA and SRbaseline;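 note: published Tox21 results reanalysed with a revised model predicting baseline toxicity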
Conditions: TOX21_AR_LUC_MDAKB2_Antagonist_0,5nM_R1881; Specificity Ratio
measurementLabel: SRbaseline
Numbers only.

// known answers, use as guide
| compound | SRbaseline |
| --- | --- |
| Cc1cc(C(C)(C)c2ccc(O)c(C)c2)ccc1O | 39.40 |
| CCC(C)(c1ccc(O)cc1)c1ccc(O)cc1 | 18.87 |
| O=S(=O)(c1ccc(O)cc1)c1ccc(O)cc1 | 127.8 |
| CC(c1ccc(O)cc1)c1ccc(O)cc1 | 76.62 |
| Oc1ccc(Sc2ccc(O)cc2)cc1 | 66.82 |
| CC(C)(c1ccc(O)cc1)c1ccc(O)cc1 [BPA, 4,4'-(Propane-2,2-diyl)diphenol, reference compound] | 32.80 |

Consider the record given below.
**Query** Please indicate SRbaseline recorded for `Oc1ccc(C(c2ccc(O)cc2)(C(F)(F)F)C(F)(F)F)cc1`
**Result** 22.15

====

Target: Estrogen Receptor ERα (Homo sapiens)
Sequence (P03372 311-547 limits assumed): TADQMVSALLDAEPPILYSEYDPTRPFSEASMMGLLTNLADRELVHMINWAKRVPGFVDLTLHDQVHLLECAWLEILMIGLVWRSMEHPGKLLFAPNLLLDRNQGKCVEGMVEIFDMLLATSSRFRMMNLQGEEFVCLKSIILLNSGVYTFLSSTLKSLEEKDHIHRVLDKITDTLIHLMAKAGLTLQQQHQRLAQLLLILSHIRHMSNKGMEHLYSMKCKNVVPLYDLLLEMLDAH
Assay: cell-based
Settings: SR-Score, sigma k=1, x=5
measurementLabel: SR-ScoreERα
One number for each entry.

Record SR-ScoreERα for all entries; do not skip any.
1. O=S(=O)(c1ccc(O)cc1)c1ccccc1O [2,4-BPS, 2,4'-Dihydroxydiphenyl sulfone]
2. COC(=O)C(c1ccc(O)cc1)c1ccc(O)cc1 [Bz, Methyl bis(4-hydroxyphenyl)acetate]
3. C=CCOc1ccc(S(=O)(=O)c2ccc(O)cc2)cc1 [BPS-MAE, 4-[[4-(Allyloxy)phenyl]sulfonyl]phenol]

**Result**
1: 1.00; 2: 1.00; 3: 1.00

**Query** Please indicate SR-ScoreERα recorded for `CC1(C)[C@H](O)C(C)(C)[C@H]1O`
**Result** 0.00922
